What Ratio to Control Rate Mean ± SE was measured for each of the following?
target: recombinant human SIRT1 (Homo sapiens); assay: SIRT1 fluorescent deacetylation assay (p53-382 acetylated peptide substrate); type: biochemical; details: Supplementary Table 2, flavones part I; 100 μM, 25 μM NAD+, 25 μM p53-382 acetylated peptide
Sequence (Q96EB6 whole entry): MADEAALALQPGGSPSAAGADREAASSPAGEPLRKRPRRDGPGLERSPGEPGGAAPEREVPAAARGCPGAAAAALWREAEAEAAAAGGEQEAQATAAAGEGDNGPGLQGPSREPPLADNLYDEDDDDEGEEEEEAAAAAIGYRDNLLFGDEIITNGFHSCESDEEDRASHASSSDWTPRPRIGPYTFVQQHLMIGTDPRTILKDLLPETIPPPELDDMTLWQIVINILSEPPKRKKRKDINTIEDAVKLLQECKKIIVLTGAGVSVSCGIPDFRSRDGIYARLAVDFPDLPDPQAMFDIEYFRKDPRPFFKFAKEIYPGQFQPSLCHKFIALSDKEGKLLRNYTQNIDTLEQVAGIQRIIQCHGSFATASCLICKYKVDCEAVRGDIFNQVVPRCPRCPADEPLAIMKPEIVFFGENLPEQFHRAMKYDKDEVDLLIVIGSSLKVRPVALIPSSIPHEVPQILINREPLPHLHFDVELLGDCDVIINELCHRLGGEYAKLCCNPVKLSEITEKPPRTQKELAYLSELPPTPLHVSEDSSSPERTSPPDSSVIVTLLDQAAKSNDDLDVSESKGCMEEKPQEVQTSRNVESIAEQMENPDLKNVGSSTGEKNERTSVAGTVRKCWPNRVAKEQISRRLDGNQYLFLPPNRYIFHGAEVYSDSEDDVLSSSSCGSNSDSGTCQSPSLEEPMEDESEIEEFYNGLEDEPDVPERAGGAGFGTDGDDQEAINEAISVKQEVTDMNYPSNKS

Take a look at these entries with their results.
1. O=c1c(O)c(-c2ccc(O)cc2O)oc2ccc(O)cc12 [3,6,2′,4′-Tetrahydroxyflavone]	2.10 ± 0.22
2. O=c1cc(-c2ccc(O)c(O)c2)oc2cc(O)cc(O)c12 [Luteolin, 5,7,3′,4′-Tetrahydroxyflavone]	5.66 ± 0.80
3. O=c1c(O)c(-c2ccc(O)cc2)oc2cc(O)cc(O)c12 [Kaempferol, 3,5,7,4′-Tetrahydroxyflavone]	3.55 ± 0.56

Moving on to the next molecule.
Incoming: Quick check: Ratio to Control Rate Mean ± SE of O=c1cc(-c2cc(O)c(O)c(O)c2)oc2cc(O)cc(O)c12 [5,7,3′4′,5′-Pentahydroxyflavone] ?
Outgoing: 6.05 ± 0.98
